# Test system: Saccharomyces cerevisiae
# assay_comment: transcriptional activation domain activity (GFP:mCherry ratio, weighted mean of sorted bins, harmonized to initial dataset scale) (arbitrary fluorescence ratio units); higher = stronger transcriptional activation
# experimental_context: beta-estradiol 1 µM; induction time 4 h
Class field: derived from transcriptional activation domain activity; ranges low interval: < 40000; middle interval: ≥ 40000 and < 60000; high interval: ≥ 60000

1. SKPSSNGRSDCSKHSTGKDASNKKNNRGKSKKAKKKTAAAKANTTDNESDSSD :: low interval
2. MNAVQASGLVISLVLYVAVVFILLAGPLLFFLCYFFFLISITFPVHLPPMRVS :: high interval
3. KSKKTEAEAEEEEVTEEVKPEKKEKKEKKEKKEKKRKRDAEEDAAETKPAEKA :: low interval
4. MRGVCSFCSFCSFSFLFLFLFLFLFFSFFSFFSFCFFLFFPSFLSVSLSFLLS :: high interval
5. LLLLIFAVFLRACDILSSQWLIWWTDGIVLGASHDLNFWKGWYMFIVWISLFF :: middle interval
6. VFWRSLFNRVFDFGFDLVLFVFFSLALSLYFVVSHSKSLPFWFMCFFFIPLFN :: high interval

###

# System: Saccharomyces cerevisiae
# assay_comment: transcriptional activation domain activity (GFP:mCherry ratio, weighted mean of sorted bins, harmonized to initial dataset scale) (arbitrary fluorescence ratio units); higher = stronger transcriptional activation
# experimental_context: beta-estradiol 1 µM; induction time 4 h
Decision: transcriptional activation domain activity >= 50000 yields condition met, all other cases yield condition not met.

1. MSDTKSARSGDKERDKRRREKESDSSSKDGRRGSHSHSKTPEEPKEKGHKRKH :: condition not met
2. KSGCGYILGHINIFQPINWILVTSSKVFPIDYILFLLLVMFFFSASIVGIATV :: condition not met
3. MSTEEQADGAPSSASDAGLKIWSCVTCRRRKVRCDRRDPCSNCVRAAIDCHYP :: condition not met
4. MGVLFFSFLPWSFRLFFSFFFYFGLFFFFEYDFVLFLVFCVLVIGPVWLLAGC :: condition met
5. NTVWLILNDITIGIAFGTFLCENHLILAAYVNYTIEKLLIKEIQWILGWLDSW :: condition met
6. DSKGFEARRANMGNDVELTGARAIVLVNIWNVQTSCGLSVPLVVQSNSGTECG :: condition met

###

# Tested on: Saccharomyces cerevisiae
# assay_comment: transcriptional activation domain activity (GFP:mCherry ratio, weighted mean of sorted bins, harmonized to initial dataset scale) (arbitrary fluorescence ratio units); higher = stronger transcriptional activation
# experimental_context: beta-estradiol 1 µM; induction time 4 h
parameter_measured: transcriptional activation domain activity

1. AEDKARKEAEDKAREEAEEKAREEQEEAARARADAEAKKAALEAKREAEAKAK :: 16300
2. ANLYVVLTLYSYTWIQVLIVSLSILLYFVFIAIYSQFNTFIFAGHIRLFGNGL :: 57500
3. PFCMVNAKTVTLRMIESIHKLRRVLVRSEDEIIRLISPVSAKVLCTCLPLFEM :: 60400
4. YLVHAGVTQDFSLIGRKGVYSLGELEEIRHWVHQALLHCRLLLVCRKALQLVY :: 71800
5. SGADEFDVGASIEPTFATPRLTRTSETGTSESTSRRPSERSRSRARVLGLPVG :: 38500

###

# System: Saccharomyces cerevisiae
# assay_comment: transcriptional activation domain activity (GFP:mCherry ratio, weighted mean of sorted bins, harmonized to initial dataset scale) (arbitrary fluorescence ratio units); higher = stronger transcriptional activation
# experimental_context: beta-estradiol 1 µM; induction time 4 h
# key: entry, value: transcriptional activation domain activity
parameter_measured: transcriptional activation domain activity

1) RSKHWEMLSVLHAGMVLLTAWFFFHCIDLIIHLERARVAYGYIVVPALFDILR :: 46500
2) MISPFHFQSLFFILFLLFFLCAWCSGWAGLRFFTPHLVSIFFLFMDWQLDLVG :: 48500
3) ATCPSFFRSICSTYYDNFVFVWDAVAAFLVPYQRYTYYPIMGIARFNLYLLSW :: 52400
4) MSYFVFPLLLPSLPRVLPRHSICILHFLLHFRTPPSPNLTHSLLIFLFLLLVR :: 64000
5) KDQIMYYIHLVIMISTIIQALVQHMIVVNTLPTYFCHPINVFSNFFWHVQFTL :: 39300
6) DQVMKIKPVQKQTTAGQRTRFKAVVVVGDSNGHVGLGVKTAKEVATAIRAAII :: 72700
7) VKPIPPRPSTGLRYRVETLIGITGYRMAKFRPSWSEVVLACLNVLWRPQFFFV :: 55000
8) RQTEKPLRSVYCYLIWGEIFVCLVFSIICWCHLYGLFGGSFEFYFMILTLWAL :: 33000
9) AYAVMVVIQSLFLCLFGMAFQFSFFLNANFVVVYSIFVLYGWAMICFALFLST :: 46800
10) KVKKKRRRSDSSDEDAIAALKAKRKKKKRADSDSDEEETSRKKSKSKRRRKAD :: 42800
11) KPLGRQELQRFVALLHSHLETQILEYMHTRRKLSDVVLFLRRTLATCLLLYGC :: 38100
12) MRLLYCFFHPGRIFDWFCWIHHVFLLVFGWLPLDWLYNLWGLGSLPWTLQNMP :: 47300
13) LLVLYGLTWAFNLISCMLISTNNGNYISCILGLFNCVFVYTLTKMILYLYFIE :: 57000
14) RGTIRPGFLIYFFILFLWVFQIHCIMQIIVNRIALLHVSPTIVRRLKWGIFSI :: 66300
15) LLKPNSCHFLLRNDIVFYKWTYYVAVIINVALRFAWTLNLANLSLNPQLLIFI :: 56100
16) ATIIFVFTASICGYNFNFDWVFSYKLVEFENTLGWTLFCLWLFDALLCVLFMT :: 52700
17) IPYVAQEYGFDYELVTYKWPSWLRAQKEKQRVIWAYKILFLDVLFPLDLKKVI :: 62100
18) SSSSTPSAFSSATPSSLFGSGASSTAKPFGSAASPSPFGAAKSSPSLFGSGGG :: 69900
19) LAHCGCSQSLLLLLFSFPYRYYIILFHYWVLRGGLTIPIYRVLCGFFLPSFVL :: 62200
20) VLPVRFPKDCDQVFIACAVDCAELWRPGWKANIWVISHRRMIVSTVHIRHLSR :: 48200
21) MAASDGPSPKKRKFARAVNTCAPCARRKVKCDRESHAPCSNCRKRRETALCEP :: 9660
22) VKEKTDQAKAEDRKRAEKRGEQYEDSSDEEKERRRKARQKAKQGGGTGAAKAP :: 26200
23) RQSTSRRSDPGPVSRVTELARSDQDTTTTKLVSRLRATAQIRVQVVLAIVFRH :: 53200
24) SKSESTHSSAKKADSGKRSGRSKPATSDGGPKGFDSKPSGEKSKKESSRSTKE :: 36600
25) IVRIVFFPTIFSFFNFFAVWFYQRSWILLPFPELYECFALVAMFYLLVVYVTP :: 46200
26) VPYQKYLYYPLLCFGRFNLYVLSLEFILRDKGPKSNRWHRFYELSGQVFFWFW :: 71200
27) EVKDKVWFLEGVTQVLPQDVDEYSGGGGMHMMLDFLGGGLPSMTTTNFSDFSL :: 113000
28) ANVSATAAPIVAVKRGRGRPRKDPSETQAAKKAAAAAVAPDGAKRGRGRPRLV :: 45200
29) VLGELSRFAGGPEETPIHIGTLYYLNVHTAPPYFWQRCQALLYRNTLLLSWIA :: 52200
30) MFQIHFLLFFFFFFSFFLLLLCFDVSILEVYFYKLLLFSFFFMMIVDLFFLFL :: 60300
31) IWSFVILLRETVLCGSIVLAISATSDYFYYGLWTFPPYQWLNFNLTQSLAVFY :: 66800
32) SFSSIIILLALCLVLLAVFFYFPFFFCLFCPYVLCCHPIFPPTLSQVSILAYY :: 44700
33) GCDYVFSMYVLGAGLWLFIFYLPPIVFSIVCLCYLTLIWAVSWVLLWCLIFIL :: 53900
34) MFYNFLFSLFSLFHMLLLHQSLVSLSYPFFLPGNFPLSVTIFIIAPLSLFWFI :: 48900
35) MINCYAEVALFECCVMFILSPLPPFSLSPQYIFYTLLLYLHYQYFVYRNCALL :: 71500
36) IYFTFRILLYAIWCALAKVHRWNKTTLWNTLCKYLSRLVAATKSRTKTHAPWL :: 49300
37) MIVRLSSVPVSGCSFVVIEALLDFLVLPLRHFNLFIAPTSFFSHLYVFFFFGR :: 56700
38) IQTYEIVGLTSCSLNVVLLPFAFYLVTLCFKTSERSPLLSMLCRLFFLPLTCG :: 45100
